The origin of these recorded values is ChEMBL document CHEMBL1641558.

# Ratio Ki per record follows
# Species: Homo sapiens
# procedure-details: Selectivity ratio of Ki for human prostanoid DP receptor to Ki for human prostanoid EP4
Please reply with the number alone, leaving off any unit.

// Ratio Ki value for C[C@H](NC(=O)c1cccc2ccn(Cc3cccc(Cl)c3)c12)c1ccc(C(=O)O)cc1 : 16

Note: attention shifts to another entry.
For this compound ( C[C@H](NC(=O)c1cccc2c1N(Cc1ccc(C(F)(F)F)cc1Br)CC2)c1ccc(C(=O)O)cc1 ), measured Ratio Ki is 88

###

# procedure-details: Clearance in rat at 20 mg/kg, po and 5 mg/kg, iv
# Assay type: ADME, organism-based
# applied-conditions: in vivo
clearance: recorded values
Supply the numeric figure in mL/min/kg, leaving out any unit text.

The following compounds have reported results that may help.
Record summary for C[C@H](NC(=O)c1cccc2c1N(Cc1cccc(Cl)c1)CC2)c1ccc(C(=O)O)cc1 : reported clearance = 26

Kindly note the recorded clearance for C[C@H](NC(=O)c1cccc2c1N(Cc1ccc(Cl)cc1)CC2)c1ccc(C(=O)O)cc1 , which is 9

Record summary for C[C@H](NC(=O)c1cccc2c1N(Cc1ccc(Cl)c(Cl)c1)CC2)c1ccc(C(=O)O)cc1 : reported clearance = 12

New cases:
clearance for C[C@H](NC(=O)c1cccc2c1N(Cc1ccc(C(F)(F)F)cc1)CC2)c1ccc(C(=O)O)cc1 is 11

Looking up C[C@H](NC(=O)c1cccc2c1N(Cc1ccc(C(F)(F)F)cc1)CC2)c1ccc(-c2nnn[nH]2)cc1 , I see its clearance listed as 28

###

# experimental-target: Prostaglandin E2 receptor EP4 subtype (Homo sapiens)
# Sequence (P35408 whole entry): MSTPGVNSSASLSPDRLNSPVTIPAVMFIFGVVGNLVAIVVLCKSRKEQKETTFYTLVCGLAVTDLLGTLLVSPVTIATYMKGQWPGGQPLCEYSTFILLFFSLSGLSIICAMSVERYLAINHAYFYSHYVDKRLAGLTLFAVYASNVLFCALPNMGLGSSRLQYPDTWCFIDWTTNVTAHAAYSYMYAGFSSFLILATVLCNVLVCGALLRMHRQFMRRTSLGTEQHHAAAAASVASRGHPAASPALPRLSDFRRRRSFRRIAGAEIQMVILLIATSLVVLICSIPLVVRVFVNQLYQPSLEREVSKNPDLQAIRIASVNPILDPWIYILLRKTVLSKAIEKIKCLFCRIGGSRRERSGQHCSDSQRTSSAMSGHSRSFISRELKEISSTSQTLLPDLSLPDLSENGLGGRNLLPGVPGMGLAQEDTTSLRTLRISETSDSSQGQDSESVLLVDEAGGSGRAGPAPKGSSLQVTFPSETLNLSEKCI
# procedure-details: Antagonist activity at human prostanoid EP4 receptor expressed in HEK293 cells assessed as inhibition of PGE2-induced cAMP accumulation by scintillation proximity assay
observation-type: IC50

Worked set:
In plain terms, C[C@H](NC(=O)c1cccc2c1N(Cc1ccc(C(C)(C)C)cc1)CC2)c1ccc(C(=O)O)cc1 has a documented IC50 of 114 nM

// recorded IC50 for C[C@H](NC(=O)c1cc(C(F)(F)F)cc2c1N(Cc1ccc(C(F)(F)F)cc1)CC2)c1ccc(C(=O)O)cc1 : 3 nM

For C[C@H](NC(=O)c1cccc2c1N(Cc1ccc(Cl)cc1)CC2)c1ccc(C(=O)O)cc1 the compound record lists IC50 as 0.92 nM

Reported IC50 for C[C@H](NC(=O)c1cccc2c1N(Cc1ccc(-c3ccccc3)cc1)CC2)c1ccc(C(=O)O)cc1 was 1.3 nM

Record summary for C[C@H](NC(=O)c1cccc2c1N(Cc1cc(Br)cc(Br)c1)CC2)c1ccc(C(=O)O)cc1 : reported IC50 = > 10000 nM

Continuing:
get_value(item= C[C@H](NC(=O)c1cccc2c1N(Cc1ccc(Cl)c(Cl)c1)CC2)c1ccc(C(=O)O)cc1 , readout=IC50) returns 1.1 nM

Short answer for C[C@H](NC(=O)c1cccc2c1N(Cc1ccc(C#N)cc1)CC2)c1ccc(C(=O)O)cc1 : IC50 was 7.3 nM

For record C[C@H](NC(=O)c1cccc2c1N(Cc1ccc(C(F)(F)F)cc1)CC2)c1ccc(C(=O)O)cc1 the listed IC50 is 2.1 nM

The recorded IC50 for C[C@H](NC(=O)c1cc(F)cc2c1N(Cc1ccc(C(F)(F)F)cc1)CC2)c1ccc(C(=O)O)cc1 is 2.1 nM

For C[C@H](NC(=O)c1cccc2c1N(Cc1ccc(F)cc1)CC2)c1ccc(C(=O)O)cc1 the compound record lists IC50 as 6.2 nM
